Reference source: ChEMBL document CHEMBL1157903

Examples of compounds with documented Vd follow.
test: Volume of distribution at steady state Sprague-Dawley rat at 5 mg/kg, iv and 10 mg/kg, po; assay type: ADME, organism-based; conditions: in vivo, read-out: Vdss
# output: bare number, implied unit L/kg

Some entries whose results are on file:
1. COC(=O)N(CC(=O)O)Cc1cccc(OCc2nc(-c3ccc(Cl)cc3)oc2C)c1
0.7
2. COC(=O)N(CC(=O)O)Cc1cccc(OCc2coc(-c3ccc(Cl)cc3)n2)c1
0.2

-- ask Could you please provide reported Vd for COC(=O)N(CC(=O)O)Cc1cccc(OCc2csc(-c3ccc(C(F)(F)F)cc3)n2)c1 ? Thanks!
-- reply 0.3
